Attribute: MC4R cAMP EC50
- Target under test: human melanocortin 4 receptor (human, UniProt P32245 1-332)
- Sequence (P32245 whole entry): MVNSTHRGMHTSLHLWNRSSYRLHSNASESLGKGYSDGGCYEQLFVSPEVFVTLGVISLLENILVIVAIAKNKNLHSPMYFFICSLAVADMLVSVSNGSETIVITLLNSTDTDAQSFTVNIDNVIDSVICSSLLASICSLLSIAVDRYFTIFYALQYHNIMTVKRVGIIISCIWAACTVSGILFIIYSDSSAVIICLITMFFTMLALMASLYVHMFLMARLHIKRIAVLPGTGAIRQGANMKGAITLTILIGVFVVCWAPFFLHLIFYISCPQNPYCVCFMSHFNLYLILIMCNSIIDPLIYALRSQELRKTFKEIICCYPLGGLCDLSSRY
- Test description: cell-based or functional assay
Positions of bridges follow the written chain, without caps; N, C: chain ends. Non-standard residues stand in square brackets, D forms with d. Sar = CNCC(=O)O

Binder | MC4R cAMP EC50 [nM]
XAHFRWXAHFRW (HCys 1, 7; D-Phe 4, 10; disulphide HCys1-HCys7; head-to-tail amide HCys1-Trp12, also called c[c[HCys-Ala-His-D-Phe-Arg-Trp-HCys]-Ala-His-D-Phe-Arg-Trp]) [Chem. 3] | 0.26
cyclo(C[Sar]H[dF]HWCAKKKR) (disulfide 1-7; SMILES C[C@@H]1NC(=O)[C@@H]2CSSC[C@H](NC(=O)[C@H](CCCNC(=N)N)NC(=O)[C@H](CCCCN)NC(=O)[C@H](CCCCN)NC(=O)[C@H](CCCCN)NC1=O)C(=O)N(C)CC(=O)N[C@@H](Cc1c[nH]cn1)C(=O)N[C@H](Cc1ccccc1)C(=O)N[C@@H](Cc1c[nH]cn1)C(=O)N[C@@H](Cc1c[nH]c3ccccc13)C(=O)N2, also called c[c[Cys-Sar-His-D-Phe-His-Trp-Cys]-Ala-Lys-Lys-Lys-Arg]) [Chem. 74] | 0.29
cyclo(CKH[dF]HWCAKKKR) (disulfide 1-7; SMILES C[C@@H]1NC(=O)[C@@H]2CSSC[C@H](NC(=O)[C@H](CCCNC(=N)N)NC(=O)[C@H](CCCCN)NC(=O)[C@H](CCCCN)NC(=O)[C@H](CCCCN)NC1=O)C(=O)N[C@@H](CCCCN)C(=O)N[C@@H](Cc1c[nH]cn1)C(=O)N[C@H](Cc1ccccc1)C(=O)N[C@@H](Cc1c[nH]cn1)C(=O)N[C@@H](Cc1c[nH]c3ccccc13)C(=O)N2, also called c[c[Cys-Lys-His-D-Phe-His-Trp-Cys]-Ala-Lys-Lys-Lys-Arg]) [Chem. 78] | 0.04
